Reference for the values: patent US10577315B2

Quick list: proliferation of human fibrosarcoma HT1080 cells, percent of control per entry.
- System: human fibrosarcoma HT1080 cells
- method: Dose response of 1,4-naphthoquinone analogs in human fibrosarcoma cells HT1080 (WST-1, 24 h)
- Type: cell-based
- measurement context: 20 μM

O=C1C=C(Oc2ccccc2)C(=O)c2ccccc21 = 18.29% of control
O=C1C=C(Oc2ccc(OCc3ccccc3)cc2)C(=O)c2ccccc21 = 46.81% of control
O=C1C=C(Oc2c(F)c(F)c(F)c(F)c2F)C(=O)c2ccccc21 = 63.04% of control
CC(=O)Nc1ccc(OC2=CC(=O)c3ccccc3C2=O)cc1 = 38.21% of control
Cc1cc(Cl)ccc1OC1=CC(=O)c2ccccc2C1=O = 69.50% of control
COc1ccc(OC2=CC(=O)c3ccccc3C2=O)cc1 = 56.04% of control

// next entry
For the compound shown here, "O=C1C=C(Oc2c(F)cc(F)cc2F)C(=O)c2ccccc21" , give the reported proliferation of human fibrosarcoma HT1080 cells, percent of control. 63.51% of control

====

# reported proliferation of human fibrosarcoma HT1080 cells, percent of control; entries follow
- Tested on: human fibrosarcoma HT1080 cells
- method: Dose response of 1,4-naphthoquinone analogs in human fibrosarcoma cells HT1080 (WST-1, 24 h)
- Format: cell-based
- measurement context: 10 μM

Illustrative cases are given below, each with its answer.
O=C1C=C(Oc2c(F)c(F)c(F)c(F)c2F)C(=O)c2ccccc21 [Analog F02] = 74.71% of control
COc1ccc(OC2=CC(=O)c3ccccc3C2=O)cc1 [Analog F05, 2-(4-methoxyphenoxy)-1,4-naphthoquinone] = 66.08% of control
Cc1cc(Cl)ccc1OC1=CC(=O)c2ccccc2C1=O [Analog F07] = 69.89% of control
O=C1C=C(Oc2c(F)cc(F)cc2F)C(=O)c2ccccc21 [Analog F04] = 76.41% of control
CC(=O)Nc1ccc(OC2=CC(=O)c3ccccc3C2=O)cc1 [Analog F03] = 75.09% of control
O=C1C=C(Oc2ccccc2)C(=O)c2ccccc21 [Analog F01, 2-phenoxy-1,4-naphthoquinone] = 69.05% of control

We now examine a further compound.
Using the record for O=C1C=C(Oc2ccc(OCc3ccccc3)cc2)C(=O)c2ccccc21 [Analog F06] , report its proliferation of human fibrosarcoma HT1080 cells, percent of control. 50.19% of control

====

- Tested on: PTEN-P2/GFP prostate cancer cells
- method: Effect of 1,4-naphthoquinone analogs on PTEN-P2/GFP cell proliferation (WST-1 cell viability, 24 h)
- Assay type: cell-based
- measurement context: Mus musculus, 4 μM, WST-1, medium with 10% FBS and DHT, read-out: PTEN-P2/GFP cell proliferation, percent of control
API: label(entry) gives y if the entry's activity at 4 µM is strictly smaller than 90%; on equality or larger values it gives n.

See these solved cases before continuing.
COc1ccc(OC2=C(NC(C)=O)C(=O)c3ccccc3C2=O)cc1 = y
O=C1C(Oc2ccccc2)=C(Oc2ccccc2)C(=O)c2ccccc21 = n

is_below(activity at 4 µM, 90%) for "CC(=O)Nc1ccc(OC2=CC(=O)c3ccccc3C2=O)cc1" ? n

Record: "CC(=O)NC1=C(Oc2ccc(OCc3ccccc3)cc2)C(=O)c2ccccc2C1=O" n

Now consider "COC(=O)c1ccccc1OC1=C(Br)C(=O)c2ccccc2C1=O" . y

Entry to check: "COc1cccc2c1C(=O)C=C(C)C2=O" n

Next compound up: "COC(=O)CSC1=C(C)C(=O)c2cccc(O)c2C1=O" y
